molecular target: Human CARM1 (PRMT4) (Homo sapiens); construct: Flag-CARM1-His was eluted with 200 ug/ml FLAG peptide in buffer A; test: CARM1 enzyme assay on peptide substrates (3H-SAM Flashplate); settings: Biochemical assay; CARM1 0.25 nM, 3H-SAM 30 nM, peptide 250 nM; read-out: Biochem IC50
pIC50 values, listed per item
Worth noting: pIC50 values are minus log10 of concentrations stated in mol/L.

| COMPOUND | MEASURED RESULT |
| --- | --- |
| CNC[C@@H](O)COc1ccc(Cl)c(-c2nc(-c3c(C)noc3C)c(C)c(N3Cc4cnc(C5CC5)cc4C3)n2)c1 | 8.62 |
| CNC[C@@H](O)COc1ccc(Cl)c(-c2nc(-c3c(C)noc3C)c(C)c(N3Cc4cnc(OC5CCOCC5)nc4C3)n2)c1 | 8.29 |

Reported pIC50 for CNC[C@@H](O)COc1ccc(Cl)c(-c2nc(-c3c(C)c(Cl)nn3C)c(C)c(N3CC4(CN(CC(F)(F)F)C4)C3)n2)c1 was 8.37

###

target: Human CARM1 (PRMT4) (Homo sapiens, UniProt Q86X55); construct: Flag-CARM1-His was eluted with 200 ug/ml FLAG peptide in buffer A; test: CARM1 enzyme assay on peptide substrates (3H-SAM Flashplate); conditions: Biochemical assay; CARM1 0.25 nM, 3H-SAM 30 nM, peptide 250 nM; read-out: Biochem IC50
Sequence (Q86X55 1-585 isoform Q86X55-1): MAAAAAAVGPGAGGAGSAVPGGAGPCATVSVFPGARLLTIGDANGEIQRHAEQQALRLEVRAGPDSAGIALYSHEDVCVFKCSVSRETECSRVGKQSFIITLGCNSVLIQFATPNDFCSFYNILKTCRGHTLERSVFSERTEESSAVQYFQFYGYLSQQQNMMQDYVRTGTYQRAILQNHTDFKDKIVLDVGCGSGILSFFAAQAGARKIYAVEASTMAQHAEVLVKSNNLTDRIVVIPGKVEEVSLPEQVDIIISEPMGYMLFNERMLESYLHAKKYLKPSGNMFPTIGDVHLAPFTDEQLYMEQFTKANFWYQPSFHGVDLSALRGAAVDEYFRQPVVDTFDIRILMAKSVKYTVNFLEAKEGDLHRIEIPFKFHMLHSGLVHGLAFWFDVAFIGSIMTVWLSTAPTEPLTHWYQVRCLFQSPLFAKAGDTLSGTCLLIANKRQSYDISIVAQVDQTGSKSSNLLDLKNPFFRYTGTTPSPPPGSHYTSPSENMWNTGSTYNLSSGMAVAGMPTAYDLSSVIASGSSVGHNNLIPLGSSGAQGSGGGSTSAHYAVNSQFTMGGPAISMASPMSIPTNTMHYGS
MEASUREMENT NAME: pIC50
Would you please state pIC50, meaning minus log10 of the concentration in mol/L, as a bare number?

// known answers, use as guide
| COMPOUND | pIC50 |
| --- | --- |
| CNC[C@@H](O)COc1ccc(Cl)c(-c2nc(-c3c(C)noc3C)c(C)c(N3Cc4ncnc(OC)c4C3)n2)c1 | 8.64 |
| CNC[C@@H](O)COc1ccc(Cl)c(-c2nc(-c3c(Cl)cnn3C)c(C)c(N3Cc4cnc(N5CC(OC)C5)nc4C3)n2)c1 | 8.53 |
| CNC[C@@H](O)COc1ccc(Cl)c(-c2nc(-c3c(C)noc3C)c(C)c(N3CC4(C3)CC(O)(C(F)(F)F)C4)n2)c1 | 8.27 |
| CNC[C@@H](O)COc1ccc(F)c(-c2nc(-c3c(C)noc3C)c(C)c(N3Cc4cn(C5CC5)nc4C3)n2)c1 | 8.72 |

What the record says about CCOc1ncc2c(n1)CN(c1nc(-c3cc(OC[C@H](O)CNC)ccc3Cl)nc(-c3c(C)noc3C)c1C)C2 : pIC50 is 8.54

###

// reported IC50 for each item listed
target: Human CARM1 (PRMT4) (Homo sapiens); construct: Flag-CARM1-His was eluted with 200 ug/ml FLAG peptide in buffer A; test: CARM1 enzyme assay on peptide substrates (3H-SAM Flashplate); details: Biochemical assay; CARM1 0.25 nM, 3H-SAM 30 nM, peptide 250 nM; read-out: Biochem IC50
Write the value in µM as a bare number.

Below, each entry is followed by its recorded IC50 result.
| COMPOUND | IC50 / µM |
| --- | --- |
| CNC[C@@H](O)COc1ccc(Cl)c(-c2nc(-c3c(C)noc3C)c(C)c(N3Cc4cccnc4C3)n2)c1Cl | 0.0162 |
| CNC[C@@H](O)COc1ccc(Cl)c(-c2nc(-c3c(C)noc3C)c(C)c(N3Cc4cn(CCOC)nc4C3)n2)c1 | 0.0072 |
| CNC[C@@H](O)COc1ccc(Cl)c(-c2nc(-c3c(C)noc3C)c(C)c(N3CC4(CCC(OCCOC)CC4)C3)n2)c1 | 0.0163 |

Consider now this further compound.
Just so you know, measured IC50 for CNC[C@@H](O)COc1ccc(Cl)c(-c2nc(-c3c(C)noc3C)c(C)c(N3Cc4cnc(N(C)C)cc4C3)n2)c1 came out at 0.0018

These measurements were taken from patent US20170305922A1.
